- procedure-details: Stability in aqueous sodium phosphate buffer at pH 3, percent remaining by HPLC
- Assay type: physicochemical
- condition-set: phosphate buffer, pH 3, buffer pH 3, 50°C
test-readout: half-life (days)
The reply should contain only the number, in days.

Item: N#Cc1ccc(NC(=NCC(=O)O)NC2CCCCCCC2)cc1 [glycine derivative, reference compound] | half-life: 13

* * *

- procedure-details: Stability in aqueous sodium phosphate buffer at pH 3, percent remaining by HPLC
- Format: physicochemical
- condition-set: phosphate buffer, pH 3, buffer pH 3, 70°C
test-readout: half-life (h)
Only the number, expressed in h, is required.

half-life reading for N#Cc1ccc(NC(=NCC(=O)O)NC2CCCCCCC2)cc1 [glycine derivative, reference compound] : 120
